Target: T1, human CTLA-4 (human, UniProt P16410 36-161, limits assumed)
T1 construct: also called HuCTLA-4; human cytotoxic T lymphocyte antigen-4
T1 sequence: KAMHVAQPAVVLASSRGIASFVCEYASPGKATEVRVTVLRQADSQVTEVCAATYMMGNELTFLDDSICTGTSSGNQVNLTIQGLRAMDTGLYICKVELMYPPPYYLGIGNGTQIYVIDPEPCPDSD
Assay: ligand blocking assay with purified proteins; competitor CD80
Recorded endpoint: pIC50
Conceptually, pIC50 converts a concentration in mol/L into minus its log10.

Look over these answered cases.
Binder	Recorded endpoint	Measured
MAb A3 (32G12D2) (antibody, V domains shown, also called murine antibody A3) VH: QVQLQQPGAELVRPGSSVKLSCKASGYTFTSYWMHWVKQRPIQGLEWIGNIDPSDSETHYNQNFKDKATLTVDKSSSTAYLQLSSLTSEDSAVYYCARRYTSSSFDYWGQGTTLTVSS VL: DIQMTQTTSSLSASLGDRVTVSCRASQDIRNYLNWYQQKPDGTVKLLIYFTSKLHSGVPSRFSGSGSGTDYFLAISNLEQEDIATYFCQQGNTLPYTFGGGTKLEIK	pIC50	9.09
MAb A4 (13F10D7) (antibody, V domains shown, also called Murine MAb A4; murine antibody A4) VH: EVQLRQSGPELVKPGTSVKISCKASGYKFTDHFINWVKQNHGKSLEWIGDINPNNGGTNSNQKFEGKATLTVDKSSSTAYMELRSLTSEDSAVYYCARLRREYFYAMDYWGQGTSVTVSS VL: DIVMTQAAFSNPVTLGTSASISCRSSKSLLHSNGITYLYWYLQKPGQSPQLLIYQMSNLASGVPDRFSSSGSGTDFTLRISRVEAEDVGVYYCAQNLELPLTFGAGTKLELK	pIC50	9.24
MAb A2 (7G10D3) (antibody, V domains shown, also called murine antibody A2) VH: QIQLVQSGPELKKPGETVKISCKASGYTFTTYGMSWVKQTPGKGLKWMGWINTYSGVPTYADDFKGRFAFSLETSASTAYLQINNLKNEDTATYFCARGRDYYGSSYRLFGVWGTGTTVTVSS VL: DIQMTQTTSSLSASLGDRVTISCRASQDISNYLNWYQQKPDGTVKLLIYYTSILNSGVPSKFSGSGSGTDYSLTISNLEQEDIATYFCQQGNTLPWTFGGGTKLEIK	pIC50	7.89

QUERY: Tell me its pIC50 given MAb A5 (32G4C12) (antibody, V domains shown, also called murine antibody A5) VH: QVQLQQSGPELVRPGASVKLSCKASGYTFTTYDINWVKQRPGQGLEWIGWIYPRDGSIIFNEKFKGKATLTVDTTSSTAYMELHSLTSEDSAVYFCARRGLLGPLDYWGQGTPLTVSS VL: DIVMTQSHKFMSTSVGDRVSITCKASQDVATTVAWYQQKPGQSPKLVIYWASTRHTGVPDRFTGSGSGTDFTLTISNVQSEDLADYFCQQYSSYPTFGVGTKLELK as the entry.
RESULT: 9.19
